From: patent US10538561B2

assay: In vitro combination Anthralin and IS 181 (MTT); type: cell-based, Human; conditions: human, HaCaT keratinocytes, IS 181 10 μg/ml alone, read-out: percent inhibition of cell viability/cytotoxicity
METRIC_NAME: cytotoxicity at 72 h, 10 μg/ml (%)
Supply the numeric figure in %, leaving out any unit text.

QUERY: If you can, please state the reported cytotoxicity at 72 h, 10 μg/ml value of H-WVQRVVEKFLK-OH [IS181] .
RESULT: -10.4

###

experiment: Cell viability (MTT assay) in SK-MEL-28; format: cell-based, Human; details: human, SK-MEL-28 melanoma cells; SK-MEL-28, 72 h, 1000 μg/ml
METRIC_NAME: cytotoxicity at 72 h, 1000 μg/ml (%)
Supply the numeric figure in %, leaving out any unit text.

QUERY: If you can, please state the reported cytotoxicity at 72 h, 1000 μg/ml value of H-WVQRVVEKFLK-OH [IS181] .
RESULT: 91

###

experiment: Cell viability (MTT assay) in SK-MEL-28; type: cell-based, Human; conditions: human, SK-MEL-28 melanoma cells; SK-MEL-28, 24 h, 1000 μg/ml
METRIC_NAME: cytotoxicity at 24 h, 1000 μg/ml

QUERY: If you can, please state the reported cytotoxicity at 24 h, 1000 μg/ml value of H-WVQRVVEKFLK-OH [IS181] .
RESULT: -11.9%

###

experiment: in vitro; settings: human, HaCaT keratinocytes
METRIC_NAME: cytotoxicity at 72 h, 1 µM (%)
Supply the numeric figure in %, leaving out any unit text.

QUERY: If you can, please state the reported cytotoxicity at 72 h, 1 µM value of CN(Cc1cnc2nc(N)nc(N)c2n1)c1ccc(C(=O)N[C@@H](CCC(=O)O)C(=O)O)cc1 [MTX, methotrexate] .
RESULT: 27.7

###

Test: Cell viability (MTT assay) in HaCaT
Format: cell-based, Human
Details: human, HaCaT keratinocytes; HaCaT, 1% FBS, 72 h, 10 μg/ml
Procedure: Cell Lines/Cells: Human Keratinocytes (HaCaT); Human melanoma (SK-MEL-28); Human PBMCs. Test Item: IS181 Treatment regimen: Single addition—24 h, ^#Multiple additions (3)−72 h; Concentration range: 1 ng/ml-2 mg/ml (triplicate wells); Sera Condition: […] Method of estimation: MTT assay. […] Positive control: Triton-X-100, Doxorubicin Hydrochloride.
METRIC_NAME: cytotoxicity at 72 h, 10 μg/ml (%)
Supply the numeric figure in %, leaving out any unit text.

QUERY: If you can, please state the reported cytotoxicity at 72 h, 10 μg/ml value of H-WVQRVVEKFLK-OH [IS181] .
RESULT: -44.5

###

experiment: Cell viability (MTT assay) in SK-MEL-28; assay type: cell-based, Human; conditions: human, SK-MEL-28 melanoma cells; SK-MEL-28, 72 h, 1 μg/ml
METRIC_NAME: cytotoxicity at 72 h, 1 μg/ml (%)
Supply the numeric figure in %, leaving out any unit text.

QUERY: If you can, please state the reported cytotoxicity at 72 h, 1 μg/ml value of H-WVQRVVEKFLK-OH [IS181] .
RESULT: -20

###

assay: Cell viability (MTT assay) in PBMCs; type: cell-based, Human; conditions: human, peripheral blood mononuclear cells (PBMCs); PBMCs, 24 h, 500 μg/ml
METRIC_NAME: cytotoxicity at 24 h, 500 μg/ml (%)
Supply the numeric figure in %, leaving out any unit text.

QUERY: If you can, please state the reported cytotoxicity at 24 h, 500 μg/ml value of H-WVQRVVEKFLK-OH [IS181] .
RESULT: -105
